Test system: Candida albicans
Test: Antifungal activity against ITC and FLC-resistant Candida albicans ATCC MYA-90819 incubated for 48 hrs by modified CLSI M27-A3 protocol based method
Assay type: functional
Settings: ATCC MYA-90819, 48 h
measured.metric: log10(MIC50) (log10 of the value in µM)
// stored as log10 of MIC50 expressed in µM

Q: Form field: reported log10(MIC50) of CCCCCC(O)(Cn1cncn1)c1ccccc1F (centres undefined)
Ans: 0.23

// for each compound in input: emit log10(MIC50)
1. CCCCCCC(O)(Cn1cncn1)c1ccc(Cl)cc1Cl (centres undefined)
2. CCCCCCC(O)(Cn1cncn1)c1ccc(F)cc1F (centres undefined)
3. CCCCCCCCCCC(O)(Cn1cncn1)c1ccc(F)cc1F (centres undefined)

Ans:
1: 0.76; 2: 0.80; 3: 1.93

---

Experiment: Selectivity index, ratio of EC50 for toxicity in human BEAS2B cells to MIC50 for antifungal activity against Candida krusei ATCC 6258
Type: cell-based
Conditions: BEAS-2B cells, read-out: Selectivity Index
measured.metric: selectivity ratio

Q: Quick one: selectivity ratio for CC[C@@H]([C@H](C)O)n1ncn(-c2ccc(N3CCN(c4ccc(OC[C@@H]5CO[C@@](Cn6cncn6)(c6ccc(F)cc6F)C5)cc4)CC3)cc2)c1=O [POSACONAZOLE] ?
Ans: 433 to 867

---

Experiment: Selectivity index, ratio of EC50 for toxicity in human BEAS2B cells to MIC50 for antifungal activity against Candida albicans ATCC 64124
Type: cell-based
Conditions: BEAS-2B cells, read-out: Selectivity Index
measured.metric: selectivity ratio
Answers are plain numbers.

Parameters: items (list). Returns: selectivity ratio for each item.
1. CCCCC(O)(Cn1cncn1)c1ccc(F)cc1F (stereo unspecified)
2. CCCCCC(O)(Cn1cncn1)c1ccc(Cl)cc1 (stereo unspecified)
3. CCCCCC(O)(Cn1cncn1)c1ccccc1F (stereo unspecified)
4. CCCCCC(O)(Cn1cncn1)c1ccc(Cl)cc1Cl (stereo unspecified)
5. CCCCCCC(O)(Cn1cncn1)c1ccc(Cl)cc1 (stereo unspecified)

Ans:
2
4
1
16
1

Please report selectivity ratio for every entry that follows.
1. CC[C@@H]([C@H](C)O)n1ncn(-c2ccc(N3CCN(c4ccc(OC[C@@H]5CO[C@@](Cn6cncn6)(c6ccc(F)cc6F)C5)cc4)CC3)cc2)c1=O [POSACONAZOLE]
2. CCCCCCCCC(O)(Cn1cncn1)c1ccc(F)cc1F (stereo unspecified)
3. CCCCCC(O)(Cn1cncn1)c1ccccc1Cl (stereo unspecified)
4. CCCCCC(O)(Cn1cncn1)c1ccc(F)cc1F (stereo unspecified)
5. CCCCCCC(O)(Cn1cncn1)c1ccc(F)cc1 (stereo unspecified)
6. CCCCC(O)(Cn1cncn1)c1ccc(Cl)cc1Cl (stereo unspecified) [HEXACONAZOLE]

Ans:
[0.4, 3, 1, 4, 1, 8]

---

Assay: Selectivity index, ratio of EC50 for toxicity in human BEAS2B cells to MIC100 for antifungal activity against Candida albicans ATCC 10231
Format: cell-based
Settings: BEAS-2B cells, read-out: Selectivity Index
measured.metric: selectivity ratio

Here's what some known entries look like.
Q: Could you share which selectivity ratio value was measured for CCCCCCC(O)(Cn1cncn1)c1ccccc1F (stereo not drawn) ?
Ans: 16

Q: Which selectivity ratio reading was recorded for the molecule CCCCCC(O)(Cn1cncn1)c1ccc(Cl)cc1 (stereo not drawn) ?
Ans: 16

Q: Entry under review: CCCCCCC(O)(Cn1cncn1)c1ccc(Cl)cc1Cl (stereo not drawn) . Reported selectivity ratio?
Ans: 117

Q: selectivity ratio lookup needed for CCCCC(O)(Cn1cncn1)c1ccc(F)cc1F (stereo not drawn) , thanks.
Ans: 19

Q: Value lookup for selectivity ratio; key = CCCCCCC(O)(Cn1cncn1)c1ccccc1Cl (stereo not drawn)
Ans: 4

Q: Returns the measured selectivity ratio for the input molecule. Input: CCCCCC(O)(Cn1cncn1)c1ccc(Cl)cc1Cl (stereo not drawn)
Ans: 130

Q: Form field: reported selectivity ratio of CCCCC(O)(Cn1cncn1)c1ccc(Cl)cc1Cl (stereo not drawn)
Ans: 130

Q: selectivity ratio for CCCCCC(O)(Cn1cncn1)c1ccc(F)cc1F (stereo not drawn) ?
Ans: 16

Provide the reported selectivity ratio of each entry below, same order.
1. CCCCCCC(O)(Cn1cncn1)c1ccc(F)cc1F (stereo not drawn)
2. CCCCCC(O)(Cn1cncn1)c1ccc(F)cc1 (stereo not drawn)

Ans:
1: 16; 2: 8

---

Tested on: Candida albicans
Assay: Antifungal activity against ITC and FLC-resistant Candida albicans ATCC MYA-90819 incubated for 48 hrs by modified CLSI M27-A3 protocol based method
Format: functional
Conditions: ATCC MYA-90819, 48 h
measured.metric: MIC50 (µM)
Give bare numbers, in µM.

Examples with their reported MIC50 follow.
Q: Could you share which MIC50 value was measured for CCCCCC(O)(Cn1cncn1)c1ccc(F)cc1F (stereo unspecified) ?
Ans: 13.2

Q: May I ask what MIC50 has been recorded for CCC(C)n1ncn(-c2ccc(N3CCN(c4ccc(OCC5COC(Cn6cncn6)(c6ccc(Cl)cc6Cl)O5)cc4)CC3)cc2)c1=O (stereo unspecified) [ITRACONAZOLE] ?
Ans: 44.4

Q: Which MIC50 value belongs to CCCCCCC(O)(Cn1cncn1)c1cccc(Cl)c1 (stereo unspecified) ?
Ans: 25.3

Q: # MIC50 lookup, item CCCCCC(O)(Cn1cncn1)c1ccc(Cl)cc1Cl (stereo unspecified)
Ans: 5.9

Next:
Q: Consider the compound shown here: CCCCCC(O)(Cn1cncn1)c1ccc(F)cc1 (stereo unspecified) What is its recorded MIC50?
Ans: 3.5

---

Experiment: Selectivity index, ratio of EC50 for toxicity in human A549 cells to MIC50 for antifungal activity against Candida krusei ATCC 6258
So I've got a bunch of molecules here, and I need their selectivity ratio values.

Worked cases, answers included:
Q: Given the entry CCCCCC(O)(Cn1cncn1)c1ccc(F)cc1F (stereo unspecified) , report its measured selectivity ratio.
Ans: 130

Q: GET /values?readout=selectivity ratio&item= CCCCCCC(O)(Cn1cncn1)c1ccccc1F (stereo unspecified)
Ans: 522

Q: Need selectivity ratio, item CCCCCCC(O)(Cn1cncn1)c1ccc(F)cc1 (stereo unspecified)
Ans: 32

Q: // returns reported selectivity ratio for input CCCCCC(O)(Cn1cncn1)c1ccc(Cl)cc1 (stereo unspecified)
Ans: 261

Count: 4. Required value per item: selectivity ratio.
1. CCCCCCCCC(O)(Cn1cncn1)c1ccc(F)cc1F (stereo unspecified)
2. CCCCCCC(O)(Cn1cncn1)c1ccc(F)cc1F (stereo unspecified)
3. CCCCCC(O)(Cn1cncn1)c1ccc(F)cc1 (stereo unspecified)
4. CCCCC(O)(Cn1cncn1)c1ccc(F)cc1F (stereo unspecified)

Ans:
50
292
32
522

---

Assign selectivity ratio to each entry below.
Test: Selectivity index, ratio of EC50 for toxicity in human BEAS2B cells to MIC50 for antifungal activity against Candida glabrata ATCC 2001
Format: cell-based
Conditions: BEAS-2B cells, read-out: Selectivity Index
Answers are plain numbers.

Recorded selectivity ratio, per entry:
Q: Which selectivity ratio reading was recorded for the compound CCCCCCCCC(O)(Cn1cncn1)c1ccc(F)cc1F (stereo not given) ?
Ans: 7

Q: Tell me the measured selectivity ratio of CC[C@@H]([C@H](C)O)n1ncn(-c2ccc(N3CCN(c4ccc(OC[C@@H]5CO[C@@](Cn6cncn6)(c6ccc(F)cc6F)C5)cc4)CC3)cc2)c1=O [POSACONAZOLE] , please.
Ans: 217

Q: Item CCCCCC(O)(Cn1cncn1)c1ccc(Cl)cc1 (stereo not given) has what recorded selectivity ratio?
Ans: 8

Q: Item under review: CCCC(O)(Cn1cncn1)c1ccc(Cl)cc1Cl (stereo not given) . Reported selectivity ratio?
Ans: 8

Q: Would you mind telling me what selectivity ratio value was observed for CCCCCCC(O)(Cn1cncn1)c1ccccc1Cl (stereo not given) ?
Ans: 32

Q: Request the reported selectivity ratio associated with CCCCCCC(O)(Cn1cncn1)c1ccc(Cl)cc1Cl (stereo not given)
Ans: 14

List selectivity ratio for every entry below, keeping the order given.
1. CCCCCC(O)(Cn1cncn1)c1ccc(F)cc1F (stereo not given)
2. CCCCCC(O)(Cn1cncn1)c1ccccc1F (stereo not given)
3. CCCCC(O)(Cn1cncn1)c1ccc(Cl)cc1Cl (stereo not given) [HEXACONAZOLE]
4. CCCCCCC(O)(Cn1cncn1)c1ccccc1F (stereo not given)

Ans:
[4, 32, 8, 32]

---

Assay: Selectivity index, ratio of EC50 for toxicity in human A549 cells to MIC50 for antifungal activity against Candida albicans ATCC 10231
Assay type: cell-based
Settings: read-out: Selectivity Index
measured.metric: selectivity ratio
One number for each entry.

Q: Dear colleague, I am looking for the recorded selectivity ratio of the following molecule: CC[C@@H]([C@H](C)O)n1ncn(-c2ccc(N3CCN(c4ccc(OC[C@@H]5CO[C@@](Cn6cncn6)(c6ccc(F)cc6F)C5)cc4)CC3)cc2)c1=O
Ans: 74

---

Assign MIC50 to each entry below.
Test system: Pichia kudriavzevii
Experiment: Antifungal activity against Candida krusei ATCC 6258 incubated for 48 hrs by modified CLSI M27-A3 protocol based method
Type: functional
Conditions: ATCC 6258, 48 h
Answers are plain numbers, in µM.

Here are 2 compounds together with their reported answers.
Q: Query MIC50 on Pichia kudriavzevii for CCC(C)n1ncn(-c2ccc(N3CCN(c4ccc(OCC5COC(Cn6cncn6)(c6ccc(Cl)cc6Cl)O5)cc4)CC3)cc2)c1=O (centres undefined)
Ans: 0.68

Q: # query: MIC50 | item CC[C@@H]([C@H](C)O)n1ncn(-c2ccc(N3CCN(c4ccc(OC[C@@H]5CO[C@@](Cn6cncn6)(c6ccc(F)cc6F)C5)cc4)CC3)cc2)c1=O | system: Pichia kudriavzevii
Ans: 0.09

Further cases:
Q: I'm curious: which MIC50 was measured for C[C@@H](c1ncncc1F)[C@](O)(Cn1cncn1)c1ccc(F)cc1F tested on Pichia kudriavzevii?
Ans: 0.34

Where these numbers come from: ChEMBL document CHEMBL4265871
